test system: PBMC; assay: Immunosuppressant activity in human effector memory T cells of PBMC assessed as inhibition of anti-CD3 antibody-induced cell proliferation by ELISA in presence of 5 uM IK1-blocker 5-(Toluene-4-sulfonyl)-5,6-dihydro-dibenzo[b,d]azepin-7-one; assay type: functional, cell-based
Endpoint: EC50 (nM)
Hi! Could you send only the number? It should be in nM, unit omitted.

Q) Quote EC50 reported for `O=c1ccc2c(OCCCCOc3ccccc3)c3ccoc3cc2o1` please.
A) 400

###

biological target: Intermediate conductance calcium-activated potassium channel protein 4 (Homo sapiens); experiment: Inhibition of human cloned IK1 expressed in african green monkey COS7 cells by whole cell patch clamp assay; type: cell-based, COS-7
Sequence (O15554 whole entry): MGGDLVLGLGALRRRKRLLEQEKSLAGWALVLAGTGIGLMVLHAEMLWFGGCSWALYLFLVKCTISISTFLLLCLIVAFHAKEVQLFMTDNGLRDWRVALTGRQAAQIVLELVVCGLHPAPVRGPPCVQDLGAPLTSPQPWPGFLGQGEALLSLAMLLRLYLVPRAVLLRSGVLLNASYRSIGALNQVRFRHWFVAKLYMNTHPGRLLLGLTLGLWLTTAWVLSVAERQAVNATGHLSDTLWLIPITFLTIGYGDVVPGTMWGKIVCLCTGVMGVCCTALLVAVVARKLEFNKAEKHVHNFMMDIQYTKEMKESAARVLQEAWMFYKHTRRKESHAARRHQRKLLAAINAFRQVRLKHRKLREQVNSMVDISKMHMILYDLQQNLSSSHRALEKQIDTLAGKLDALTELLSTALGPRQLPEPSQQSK
Endpoint: IC50 (µM)
Return type: number; implicit unit µM.

INSERT INTO assay_data (mol, endpoint, unit_name, reported_measurement) VALUES
  ('O=C1CN(C(=O)c2cccc(Cl)c2)c2ccccc2-c2ccccc21', 'IC50', 'µM', 1.3),
  ('Cc1ccc(C(=O)N2CC(=O)c3ccccc3-c3ccccc32)cc1', 'IC50', 'µM', 16),
  ('O=C1CN(S(=O)(=O)c2cccs2)c2ccccc2-c2ccccc21', 'IC50', 'µM', 2.4),
  ('O=c1ccc2c(OCCCCOc3ccccc3)c3ccoc3cc2o1', 'IC50', 'µM', 10);

Q) Provide the reported IC50 (system: Intermediate conductance calcium-activated potassium channel protein 4 (Homo sapiens)) for `Cc1ccc(S(=O)(=O)N2CC(=O)c3ccccc3-c3ccccc32)cc1`
A) 2.1
